Record form. Attribute: HSL mRNA. Fill in for each entry.
test system: HSL; assay: HSL mRNA expression in adipocytes (real-time PCR); assay type: cell-based, human; conditions: differentiating adipocytes transfected with oligomeric compound; Table 75
In the oligonucleotide strings, read from the 5' end, every base follows the letter of its sugar. An asterisk marks phosphorothioate; unmarked linkages are phosphodiester. Other units and linkages are bracketed, terminal groups are in braces. A string of capitals states the bases alone. e = 2'-O-(2-methoxyethyl) (MOE); [5mC] = 5-methylcytosine

INSERT INTO assay_data (substance, recordedvalue) VALUES
  ('327918 (antisense e[5mC]*eT*eA*eG*eT*eA*e[5mC]*eA*eT*e[5mC]*eA*eT*e[5mC]*eT*eA*eT*eA*e[5mC]*eT*eG*eT*eA) [compound 327918]', '85 percentage of untreated control (UTC)');

List reported HSL mRNA for each of these substances:
1. 348125 (GCUGGAUGCAAACCUGCAAAACU; anti-miR; all 2'-MOE, all phosphorothioate, methylation of C and T or U not given here) [compound 348125]
2. 344616 (AGAGGUCGACCGUGUAAUGUGC; anti-miR; all 2'-MOE, all phosphorothioate, methylation of C and T or U not given here) [compound 344616]
3. 327958 (antisense e[5mC]*e[5mC]*eG*eG*e[5mC]*eT*eG*e[5mC]*eA*eA*e[5mC]*eA*e[5mC]*eA*eA*eG*eA*e[5mC]*eA*e[5mC]*eG*eA) [compound 327958]

["64 percentage of untreated control (UTC)", "23 percentage of untreated control (UTC)", "5 percentage of untreated control (UTC)"]

* * *

tested on: HeLa cells; assay: Cell cycle assay in HeLa cells; assay type: cell-based, human; details: HeLa cells, 150 nM oligomeric compound, 48 hours after treatment; relative to untreated control (UTC=100)
In the oligonucleotide strings, read from the 5' end, every base follows the letter of its sugar. An asterisk marks phosphorothioate; unmarked linkages are phosphodiester. Other units and linkages are bracketed, terminal groups are in braces. A string of capitals states the bases alone. e = 2'-O-(2-methoxyethyl) (MOE); [5mC] = 5-methylcytosine; d = 2'-deoxy (DNA)
Field: % cells in cell cycle phase: G2/M. Provide a value for each of the substances that follow.
Give bare numbers, in %.

The examples below pair each entry with its known result.
INSERT INTO assay_data (substance, recordedvalue) VALUES
  ('327911 (antisense eG*e[5mC]*eT*eA*e[5mC]*e[5mC]*eT*eG*e[5mC]*eA*e[5mC]*eT*eG*eT*eA*eA*eG*e[5mC]*eA*e[5mC]*eT*eT*eT*eT) [compound 327911]', 109),
  ('328744 (antisense e[5mC]*eG*eG*eA*eT*d[5mC]*d[5mC]*dT*dG*dT*dT*dA*d[5mC]*d[5mC]*dT*e[5mC]*eA*e[5mC]*e[5mC]*eA) [compound 328744]', 334),
  ('328136 (eA*eA*e[5mC]*eT*eA*e[5mC]*eT*eT*e[5mC]*e[5mC]*eA*eG*eA*eG*e[5mC]*eA*eG*eG*eT*eG*eA; anti-miR) [compound 328136]', 113),
  ('328424 (antisense eA*eG*eG*eA*eA*dG*d[5mC]*dA*d[5mC]*dA*d[5mC]*dA*dT*dT*dA*eT*e[5mC]*eA*e[5mC]*eA) [compound 328424]', 101),
  ('338741 (antisense GCTTCACAATTAGACCATCC; all 2''-MOE, all phosphorothioate, methylation of C not given here) [compound 338741]', 99),
  ('328342 (e[5mC]*eA*eA*eT*eT*dG*d[5mC]*dG*d[5mC]*dT*dA*d[5mC]*dA*dG*dA*eA*e[5mC]*eT*eG*eT) [compound 328342]', 225);

Each substance below has a recorded value; state its % cells in cell cycle phase: G2/M.
1. 345395 (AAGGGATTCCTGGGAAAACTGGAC; sugars from the 5' end e5 d10 e9, all phosphorothioate, methylation of C not given here) [compound 345395]
2. 345373 (AGCCTATCCTGGATTACTTGAA; sugars from the 5' end e5 d10 e7, all phosphorothioate, methylation of C not given here) [compound 345373]
3. 328119 (antisense eA*eA*eT*eA*eA*e[5mC]*eA*e[5mC]*eA*e[5mC]*eA*eT*e[5mC]*e[5mC]*eA*e[5mC]*eT*eT*eT*eA*eA) [compound 328119]
4. 338713 (antisense ACCTCTCAGGAAGACGGACT; all 2'-MOE, all phosphorothioate, methylation of C not given here) [compound 338713]

[157, 145, 124, 109]

// fetch % cells in cell cycle phase: G2/M given entry 338809 (antisense CTGCTCCAGAGCCCGAGTCG; all 2'-MOE, all phosphorothioate, methylation of C not given here) [compound 338809]
129

Sourced from patent US8178506B2
